Measured On: human TLR8 (Homo sapiens)
Sequence (Q9NR97 27-1041): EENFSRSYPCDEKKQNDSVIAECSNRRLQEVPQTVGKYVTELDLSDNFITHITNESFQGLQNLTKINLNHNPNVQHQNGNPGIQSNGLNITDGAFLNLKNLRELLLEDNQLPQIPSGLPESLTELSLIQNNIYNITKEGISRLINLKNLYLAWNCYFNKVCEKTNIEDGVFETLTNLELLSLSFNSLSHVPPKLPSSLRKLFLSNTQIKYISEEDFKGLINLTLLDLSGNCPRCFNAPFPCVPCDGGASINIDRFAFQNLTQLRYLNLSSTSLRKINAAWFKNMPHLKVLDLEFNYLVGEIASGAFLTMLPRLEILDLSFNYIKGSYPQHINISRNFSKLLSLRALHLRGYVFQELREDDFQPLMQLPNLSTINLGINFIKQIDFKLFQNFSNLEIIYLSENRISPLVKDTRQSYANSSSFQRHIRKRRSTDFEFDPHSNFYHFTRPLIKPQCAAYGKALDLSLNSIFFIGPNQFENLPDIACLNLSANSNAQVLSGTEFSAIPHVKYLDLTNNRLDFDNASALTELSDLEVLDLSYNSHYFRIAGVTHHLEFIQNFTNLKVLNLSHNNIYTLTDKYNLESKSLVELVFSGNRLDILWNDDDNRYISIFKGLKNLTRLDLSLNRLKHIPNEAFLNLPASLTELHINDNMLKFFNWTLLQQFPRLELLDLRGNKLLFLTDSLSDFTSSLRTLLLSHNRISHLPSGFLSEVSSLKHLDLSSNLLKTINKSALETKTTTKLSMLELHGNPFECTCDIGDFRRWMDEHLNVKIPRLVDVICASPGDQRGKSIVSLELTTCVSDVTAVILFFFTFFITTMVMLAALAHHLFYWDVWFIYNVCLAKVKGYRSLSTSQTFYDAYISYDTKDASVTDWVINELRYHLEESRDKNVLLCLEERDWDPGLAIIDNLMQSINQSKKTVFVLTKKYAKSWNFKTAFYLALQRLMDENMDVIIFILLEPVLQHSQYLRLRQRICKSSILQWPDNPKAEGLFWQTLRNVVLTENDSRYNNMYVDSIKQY
Experimental Details: HEK293-Blue-hTLR-8 cells assay (SEAP reporter, R848 stimulation)
Type: cell-based
Test Conditions: HEK293-Blue-hTLR-8 cells, R848 ligand, 20 hrs incubation; read-out: TLR8 IC50
Procedure: The following tests were carried out in order to determine the activity of the compounds of formula (I) in HEK293-Blue-hTLR-7/8/9 cells assay. HEK293-Blue-hTLR-8 Cells Assay: A stable HEK293-Blue-hTLR-8 cell line was purchased from InvivoGen (Cat. #: hkb-htlr8, San Diego, California, USA). These cells were originally designed for studying the stimulation of human TLR8 by monitoring the activation of NF-κB. […]
In plain terms, low IC50, meaning strictly below 40 nM, gives 1, and everything else gives -1.

Take a look at these entries with their results.
Compound: C[C@@H]1CN(c2ccc(C#N)n3nccc23)C[C@H](C(=O)NC2CCCNCC2)O1 (some centres unmarked)
Measured On: human TLR8 (Homo sapiens)
Discrete Label: 1
--
Compound: C[C@@H]1CN(c2ccc(C#N)n3nccc23)C[C@H](C(=O)NC2CCN(C)CC2)O1
Measured On: human TLR8 (Homo sapiens)
Discrete Label: 1
--
Compound: C[C@H]1C[C@@H](NCC#N)CN(c2ccc(C#N)n3nccc23)C1
Measured On: human TLR8 (Homo sapiens)
Discrete Label: -1
--
Compound: C[C@@H]1CN(c2ccc(C#N)n3nccc23)C[C@H](C(=O)NC2C3CCCC2CNC3)O1 (some centres unmarked)
Measured On: human TLR8 (Homo sapiens)
Discrete Label: 1
--
Compound: C[C@@H]1CN(c2ccc(C#N)n3nccc23)C[C@H](C(=O)NC2CCNCC2)O1
Measured On: human TLR8 (Homo sapiens)
Discrete Label: 1

input: Please indicate whether the reported IC50 of "C[C@H]1C[C@@H](N)CN(c2ccc(C#N)n3nccc23)C1" is strictly below 40 nM.
output: 1

input: IC50 under 40 nM? Item: "C[C@@H]1CN(c2ccc(C#N)n3nccc23)C[C@H](C(=O)NC(C)(C)CO)O1"
output: -1

input: Please determine if "COCCNC(=O)[C@H]1CN(c2ccc(C#N)n3nccc23)C[C@@H](C)O1" is below 40 nM in terms of IC50.
output: -1

====

Measured On: human TLR7 (Homo sapiens, UniProt Q9NYK1)
Sequence (Q9NYK1 27-1049): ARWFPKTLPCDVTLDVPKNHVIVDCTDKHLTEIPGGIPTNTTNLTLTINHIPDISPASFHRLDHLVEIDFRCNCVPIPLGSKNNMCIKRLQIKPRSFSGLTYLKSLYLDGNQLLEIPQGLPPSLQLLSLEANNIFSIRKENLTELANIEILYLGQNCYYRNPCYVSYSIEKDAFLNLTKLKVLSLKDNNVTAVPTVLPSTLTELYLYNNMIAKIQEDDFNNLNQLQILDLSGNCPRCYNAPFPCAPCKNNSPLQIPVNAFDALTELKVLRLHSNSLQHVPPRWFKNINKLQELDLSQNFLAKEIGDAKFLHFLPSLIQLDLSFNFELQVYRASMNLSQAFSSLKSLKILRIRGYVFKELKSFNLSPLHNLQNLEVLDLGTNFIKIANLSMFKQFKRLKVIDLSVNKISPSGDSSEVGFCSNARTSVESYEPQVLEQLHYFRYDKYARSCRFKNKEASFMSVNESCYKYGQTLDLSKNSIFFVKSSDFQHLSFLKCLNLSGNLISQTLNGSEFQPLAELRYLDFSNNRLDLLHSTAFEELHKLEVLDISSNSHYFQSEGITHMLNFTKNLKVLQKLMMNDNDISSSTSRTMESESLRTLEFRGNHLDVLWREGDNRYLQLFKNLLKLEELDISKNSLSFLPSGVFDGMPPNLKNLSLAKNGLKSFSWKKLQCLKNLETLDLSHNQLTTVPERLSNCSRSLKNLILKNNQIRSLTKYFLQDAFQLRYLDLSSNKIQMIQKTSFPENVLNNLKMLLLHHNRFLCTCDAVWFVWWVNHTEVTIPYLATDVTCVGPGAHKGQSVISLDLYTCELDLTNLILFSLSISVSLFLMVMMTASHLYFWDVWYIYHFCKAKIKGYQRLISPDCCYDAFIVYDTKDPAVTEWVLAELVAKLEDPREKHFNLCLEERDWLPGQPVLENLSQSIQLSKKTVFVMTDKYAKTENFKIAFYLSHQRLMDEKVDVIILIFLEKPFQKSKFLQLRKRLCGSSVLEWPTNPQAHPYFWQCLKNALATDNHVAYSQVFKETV
Experimental Details: HEK293-Blue-hTLR-7 cells assay (SEAP reporter, R848 stimulation)
Assay type: cell-based
Test Conditions: HEK293-Blue-hTLR-7 cells, R848 ligand, 20 hrs incubation; read-out: TLR7 IC50
pIC50: −log10 of the molar value.
yes (1) means recorded pIC50 is 7 or above; no (0) means it is below 7.

Compound: C[C@@H]1CN(c2ccc(C#N)n3nccc23)C[C@H](C(=O)NCC(C)(C)CN)O1 [Example 39]
Discrete Label: yes (1)
//
Compound: C[C@@H]1CN(c2ccc(C#N)n3nccc23)C[C@H](C(=O)N[C@H]2CC[C@H](O)CC2)O1 [Example 21]
Discrete Label: no (0)

input: In plain terms: is recorded pIC50 at least 7 for C[C@@H]1CN(c2ccc(C#N)n3nccc23)C[C@H](C(=O)NC2CC3COCC(C2)N3)O1 (stereo partly shown) [Example 22] ?
output: yes (1)

====

Measured On: human TLR7 (Homo sapiens, UniProt Q9NYK1)
Experimental Details: HEK293-Blue-hTLR-7 cells assay (SEAP reporter, R848 stimulation)
Format: cell-based
Test Conditions: HEK293-Blue-hTLR-7 cells, R848 ligand, 20 hrs incubation; read-out: TLR7 IC50
log10(IC50) listing for selected molecules.
Recall that a logarithmic scale is used here: each number is log10 of IC50 in nM.

Molecule: C[C@@H]1CN(c2ccc(C#N)n3nccc23)C[C@H](C(=O)NC(C)(C)CN)O1 [Example 41]
Measured On: human TLR7 (Homo sapiens, UniProt Q9NYK1)
Val: 1.66

Molecule: C[C@@H]1CN(c2ccc(C#N)n3nccc23)C[C@H](C(=O)NC2CC3(CNC3)C2)O1 [Example 3]
Measured On: human TLR7 (Homo sapiens, UniProt Q9NYK1)
Val: 2.20

Notebook: C[C@@H]1CN(c2ccc(C#N)n3nccc23)C[C@H](C(=O)NC2CC3CCCC(C2)N3)O1 (stereo partly shown) [Example 14] , log10(IC50) read as 0.85

Value of measured log10(IC50) for the entry C[C@@H]1CN(c2ccc(C#N)n3nccc23)C[C@H](C(=O)NC2C3CCC2CNC3)O1 (stereo partly shown) [Example 26] : 1.30

In plain terms, C[C@@H]1CN(c2ccc(C#N)n3nccc23)C[C@H](C(=O)N2CC(N)C2)O1 [Example 8] has a documented log10(IC50) of 2.28

====

Measured On: human TLR9 (Homo sapiens, UniProt Q9NR96)
Sequence (Q9NR96 26-1032): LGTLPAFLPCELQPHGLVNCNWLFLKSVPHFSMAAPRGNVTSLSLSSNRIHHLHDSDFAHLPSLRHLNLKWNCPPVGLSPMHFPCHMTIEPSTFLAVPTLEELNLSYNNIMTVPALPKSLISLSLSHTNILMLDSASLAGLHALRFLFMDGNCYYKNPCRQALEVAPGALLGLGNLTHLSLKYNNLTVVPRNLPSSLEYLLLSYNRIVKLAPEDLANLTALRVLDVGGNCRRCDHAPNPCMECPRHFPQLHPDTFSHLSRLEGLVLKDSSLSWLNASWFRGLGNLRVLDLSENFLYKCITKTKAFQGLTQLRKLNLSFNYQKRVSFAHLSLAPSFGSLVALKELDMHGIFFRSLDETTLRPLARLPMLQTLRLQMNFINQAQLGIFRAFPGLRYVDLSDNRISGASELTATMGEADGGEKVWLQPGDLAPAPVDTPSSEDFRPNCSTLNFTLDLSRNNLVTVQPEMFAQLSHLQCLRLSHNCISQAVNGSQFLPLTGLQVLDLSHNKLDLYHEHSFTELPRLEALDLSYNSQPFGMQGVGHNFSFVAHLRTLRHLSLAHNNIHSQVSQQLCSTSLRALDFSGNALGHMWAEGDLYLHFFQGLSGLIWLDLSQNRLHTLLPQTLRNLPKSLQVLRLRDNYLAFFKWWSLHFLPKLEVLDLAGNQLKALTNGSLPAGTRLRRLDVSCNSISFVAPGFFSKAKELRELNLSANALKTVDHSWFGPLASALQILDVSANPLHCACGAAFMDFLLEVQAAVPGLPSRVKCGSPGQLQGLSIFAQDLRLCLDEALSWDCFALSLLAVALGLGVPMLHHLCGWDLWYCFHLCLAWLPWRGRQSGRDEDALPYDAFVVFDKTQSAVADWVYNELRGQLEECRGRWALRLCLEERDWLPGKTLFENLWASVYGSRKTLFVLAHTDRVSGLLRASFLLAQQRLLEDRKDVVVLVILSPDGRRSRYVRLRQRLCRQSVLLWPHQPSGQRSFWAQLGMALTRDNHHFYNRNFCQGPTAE
Experimental Details: HEK293-Blue-hTLR-9 cells assay (SEAP reporter, ODN2006 stimulation)
Assay type: cell-based
Test Conditions: HEK293-Blue-hTLR-9 cells, ODN2006 ligand, 20 hrs incubation; read-out: TLR9 IC50
Parameter: IC50. Scope: all listed entries.
Give your result in µM as a bare value.

Some entries whose results are on file:
Molecule: C[C@@H]1CN(c2ccc(C#N)n3ncc(F)c23)C[C@H](C(=O)NC2CCN(C)CC2)O1
IC50, µM: 14
//
Molecule: CCC(C)(C)NC(=O)[C@H]1CN(c2ccc(C#N)n3nccc23)C[C@@H](C)O1
IC50, µM: 33

IC50 reported for this molecule C[C@@H]1CN(c2ccc(C#N)n3nccc23)C[C@H](C(=O)NC2CCCNCC2)O1 (stereo partly shown) : 4.8
